- System: Escherichia coli IAI1
- method: growth AUC relative to DMSO control (median of replicates) (fraction); higher = more growth (less inhibition), active = hit call of the paper
- test settings: 20 µM; 24 h
Listed compounds paired with reported growth AUC
I only need the number, thanks.

Sample records with growth AUC:
COc1cc(OC)nc(NC(=O)NS(=O)(=O)c2cc(NC=O)ccc2C(=O)N(C)C)n1 = 1.01
CCc1cccc(C)c1N(C(=O)CCl)C(C)COC (stereo unspecified) = 0.983
COC(=O)COc1cc(Cl)c(Cl)cc1Cl = 1.02
CCCN(CCC)N=O = 1

Exam item: Find the recorded growth AUC belonging to CNC(=O)Oc1cc(C)c(N(C)C)c(C)c1 and report it.
Marked response: 0.978

Exam item: Okay, and CCC(C)(NC(=O)c1cc(Cl)c(C)c(Cl)c1)C(=O)CCl (stereo unspecified) ?
Marked response: 0.995
